These entries and their values trace back to patent US8202879B2.

# Assayed target: EGFR (Homo sapiens, UniProt P00533)
# Construct: purchased Carna Biosciences, Inc; host or cells: insect cell expression system
# Sequence (P00533 25-1210): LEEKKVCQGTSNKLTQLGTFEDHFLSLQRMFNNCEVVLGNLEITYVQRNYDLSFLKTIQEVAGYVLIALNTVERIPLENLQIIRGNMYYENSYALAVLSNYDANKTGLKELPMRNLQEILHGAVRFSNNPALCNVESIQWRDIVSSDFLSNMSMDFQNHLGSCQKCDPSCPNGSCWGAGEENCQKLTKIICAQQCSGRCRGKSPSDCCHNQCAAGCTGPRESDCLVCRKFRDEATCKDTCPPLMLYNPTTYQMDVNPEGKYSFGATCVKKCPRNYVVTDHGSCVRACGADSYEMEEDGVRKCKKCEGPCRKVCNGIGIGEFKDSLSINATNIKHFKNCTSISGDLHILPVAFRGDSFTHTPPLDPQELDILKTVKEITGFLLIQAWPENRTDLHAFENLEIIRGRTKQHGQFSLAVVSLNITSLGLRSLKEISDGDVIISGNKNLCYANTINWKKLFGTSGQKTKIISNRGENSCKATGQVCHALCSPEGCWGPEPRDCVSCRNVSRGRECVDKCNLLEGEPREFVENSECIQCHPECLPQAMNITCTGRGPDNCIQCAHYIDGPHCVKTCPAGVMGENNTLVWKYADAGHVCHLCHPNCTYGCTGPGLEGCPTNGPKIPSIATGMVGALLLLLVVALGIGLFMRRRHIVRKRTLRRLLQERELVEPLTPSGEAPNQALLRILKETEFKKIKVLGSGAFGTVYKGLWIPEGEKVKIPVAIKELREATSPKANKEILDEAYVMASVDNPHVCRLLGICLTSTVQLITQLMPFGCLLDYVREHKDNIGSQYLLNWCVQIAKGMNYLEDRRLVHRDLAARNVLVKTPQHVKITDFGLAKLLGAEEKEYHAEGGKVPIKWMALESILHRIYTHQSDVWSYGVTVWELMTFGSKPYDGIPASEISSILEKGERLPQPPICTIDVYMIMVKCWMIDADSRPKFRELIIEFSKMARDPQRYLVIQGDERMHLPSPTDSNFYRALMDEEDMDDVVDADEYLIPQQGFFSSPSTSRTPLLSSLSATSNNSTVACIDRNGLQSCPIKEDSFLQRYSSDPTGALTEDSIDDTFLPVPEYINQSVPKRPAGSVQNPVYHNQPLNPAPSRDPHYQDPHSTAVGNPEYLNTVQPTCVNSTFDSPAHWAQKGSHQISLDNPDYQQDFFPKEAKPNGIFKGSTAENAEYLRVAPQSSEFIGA
# Assay summary: Enzyme inhibitory activity on EGFR (time resolution fluorescence, biotinylated poly-Glu-Tyr substrate)
# Assay type: biochemical
# Condition info: EGFR purified from insect cell expression system; ATP solution 125 μM; room temperature, 60 minutes
A collection of molecules and their measured IC50
Express your answer in nM, writing the number without its unit.

Worked cases, IC50 given:
CC#C/C(=N\OCCNC1CCN(S(C)(=O)=O)CC1)c1ccc2ncnc(Nc3ccc(OCc4cccc(F)c4)c(Cl)c3)c2c1 ... 54
CC#CC(=NOCCNCC)c1ccc2ncnc(Nc3ccc(OCc4cccc(F)c4)c(Cl)c3)c2c1 ... 11
CC#C/C(=N\OCCN1CCC(NC(C)=O)CC1)c1ccc2ncnc(Nc3ccc(OCc4cccc(F)c4)c(Cl)c3)c2c1 ... 84

Exam item: Given the entry CC#C/C(=N\OC[C@H]1CNCCN1)c1ccc2ncnc(Nc3ccc(OCc4cccc(F)c4)c(Cl)c3)c2c1 , report its measured IC50.
Marked response: 14

###

A collection of compounds and their measured IC50
# Tested on: BT-474
# Assay summary: In vitro cell proliferation inhibition, WST assay
# Format: cell-based, human
# Condition info: Homo sapiens, BT-474, 72 h, BT-474 cells, cultured for 3 days, read-out: BT-474 (nM) proliferation inhibitory activity (IC50 value)
Express your answer in nM, writing the number without its unit.

Worked cases, IC50 given:
CC#C/C(=N\OCC(=O)NCCOS(C)(=O)=O)c1ccc2ncnc(Nc3ccc(OCc4cccc(F)c4)c(Cl)c3)c2c1 [VIII-225] ... 7
CC#C/C(=N\OC[C@@H](COC)NC)c1ccc2ncnc(Nc3ccc(S(=O)(=O)c4ccccc4)cc3)c2c1 [VIII-205] ... 31
CC#CC(=NOCCNC(=NC#N)NC)c1ccc2ncnc(Nc3ccc(OCc4cccc(F)c4)c(Cl)c3)c2c1 [VIII-58] ... 37

Pending compound:
Exam item: Given the entry CC#C/C(=N\OCCN(C)CCOC)c1ccc2ncnc(Nc3ccc(OCc4ccccn4)c(Cl)c3)c2c1 [VIII-146] , report its measured IC50.
Marked response: 45

###

A collection of molecules and their measured log10 of IC50
# Assayed target: HER2 (Homo sapiens, UniProt P04626)
# Construct: purchased Carna Biosciences, Inc; host or cells: insect cell expression system
# Sequence (P04626 23-1255): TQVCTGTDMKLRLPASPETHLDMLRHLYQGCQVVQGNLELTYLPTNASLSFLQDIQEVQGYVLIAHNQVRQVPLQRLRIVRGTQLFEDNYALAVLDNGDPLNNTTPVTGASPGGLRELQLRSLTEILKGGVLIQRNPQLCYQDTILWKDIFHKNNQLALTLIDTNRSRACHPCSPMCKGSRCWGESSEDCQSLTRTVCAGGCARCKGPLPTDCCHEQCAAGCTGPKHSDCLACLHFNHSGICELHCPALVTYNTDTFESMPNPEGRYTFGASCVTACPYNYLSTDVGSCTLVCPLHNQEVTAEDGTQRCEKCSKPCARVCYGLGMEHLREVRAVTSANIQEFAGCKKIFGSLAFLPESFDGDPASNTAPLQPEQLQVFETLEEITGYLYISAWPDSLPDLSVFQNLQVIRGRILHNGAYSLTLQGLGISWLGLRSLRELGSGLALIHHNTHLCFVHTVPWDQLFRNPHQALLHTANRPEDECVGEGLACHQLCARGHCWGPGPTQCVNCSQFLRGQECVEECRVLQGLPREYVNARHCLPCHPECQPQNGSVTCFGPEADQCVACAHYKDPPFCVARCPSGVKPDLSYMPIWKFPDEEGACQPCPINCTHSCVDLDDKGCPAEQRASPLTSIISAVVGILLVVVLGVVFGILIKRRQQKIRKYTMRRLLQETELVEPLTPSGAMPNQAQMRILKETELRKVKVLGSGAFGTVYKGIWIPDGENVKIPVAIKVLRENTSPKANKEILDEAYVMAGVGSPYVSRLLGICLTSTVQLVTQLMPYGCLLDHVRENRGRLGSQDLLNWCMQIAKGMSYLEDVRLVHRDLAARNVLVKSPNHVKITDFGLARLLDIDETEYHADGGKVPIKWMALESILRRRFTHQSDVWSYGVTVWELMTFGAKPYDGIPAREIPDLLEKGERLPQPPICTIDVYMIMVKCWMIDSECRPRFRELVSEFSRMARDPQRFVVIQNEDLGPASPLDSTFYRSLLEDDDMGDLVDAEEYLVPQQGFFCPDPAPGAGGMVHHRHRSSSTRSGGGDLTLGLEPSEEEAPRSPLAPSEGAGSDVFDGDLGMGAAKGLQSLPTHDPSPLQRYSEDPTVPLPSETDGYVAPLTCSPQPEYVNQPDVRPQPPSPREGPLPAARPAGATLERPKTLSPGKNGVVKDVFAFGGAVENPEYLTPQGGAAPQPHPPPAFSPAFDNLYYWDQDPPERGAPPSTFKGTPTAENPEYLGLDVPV
# Assay summary: Enzyme inhibitory activity on HER2 (time resolution fluorescence, biotinylated poly-Glu-Tyr substrate)
# Assay type: biochemical
# Condition info: enzyme reaction at room temperature for 60 minutes
Values below are the log10 of the recorded IC50, with nM as the unit.

Exam item: Given the entry CC#C/C(=N\OCCN1CC[C@@H](OC(N)=O)C1)c1ccc2ncnc(Nc3ccc4c(cnn4Cc4cccc(F)c4)c3)c2c1 , report its measured log10 of IC50.
Marked response: 1.18

Exam item: Given the entry CC#C/C(=N\OCCN(C)CCO)c1ccc2ncnc(Nc3ccc(OCc4ccccn4)c(Cl)c3)c2c1 , report its measured log10 of IC50.
Marked response: 0.95

Exam item: Given the entry CC#C/C(=N\OCC1COCCN1)c1ccc2ncnc(Nc3ccc(Oc4ccc(C)nc4)c(C)c3)c2c1 (stereo not drawn) , report its measured log10 of IC50.
Marked response: 1.34

Exam item: Given the entry CC#C/C(=N\OCCN1CC[C@@H](NC(C)=O)C1)c1ccc2ncnc(Nc3ccc(OCc4ccccn4)c(Cl)c3)c2c1 , report its measured log10 of IC50.
Marked response: 1.15

Exam item: Given the entry CC#C/C(=N\OC[C@H]1COCCN1)c1ccc2ncnc(Nc3ccc(OCc4ccccn4)c(Cl)c3)c2c1 , report its measured log10 of IC50.
Marked response: 0.62

Exam item: Given the entry CC#C/C(=N\OCCNC)c1ccc2ncnc(Nc3ccc(OCc4cccnc4)c(Cl)c3)c2c1 , report its measured log10 of IC50.
Marked response: 0.85

Exam item: Given the entry CC#CC(=NOCC1CN(C)CCN1C)c1ccc2ncnc(Nc3ccc(OCc4ccccn4)c(Cl)c3)c2c1 (stereo not drawn) , report its measured log10 of IC50.
Marked response: 1.20
